- Test system: A431 (EGFR WT) cells
- TEST_SUMMARY: Cell proliferation assay (MTS cell viability)
- Format: cell-based
- SETTINGS: Homo sapiens, A-431, 72 h, 3 days of exposure
pIC50: −log10 of the molar value.
Entry flag: label 1 if pIC50 reaches 7; label 0 if it does not.

Below, 4 molecules whose answers are already recorded.
{"columns": ["MOLECULE", "CAT"],
 "data": [
  ["COc1cc(Nc2ncc(Cl)c(Nc3ccccc3C(=O)C(=O)N(C)C)n2)ccc1N1CCC(N(C)C)CC1 [Example 118]", "label 1"],
  ["C=CC(=O)Nc1ccc(OC)c(Nc2ncc(Cl)c(Nc3ccccc3C(=O)C(=O)N(CC)CC)n2)c1 [Example 131]", "label 0"],
  ["COc1cc(N2CCN(C(C)=O)CC2)ccc1Nc1ncc(Cl)c(Nc2ccccc2C(=O)C(=O)N(C)C)n1 [Example 53]", "label 1"],
  ["COc1cc(N2CCC(N(C)C)CC2)ccc1Nc1ncc(Cl)c(Nc2ccccc2C(=O)C(=O)N(C)C)n1 [Example 17]", "label 0"]
]}

Now let's try a different one.
# bool: pIC50 of C=C(CN(C)CCN(C)C)C(=O)Nc1ccc(OC)c(Nc2ncc(Cl)c(Nc3ccccc3C(=O)C(=O)N(C)C)n2)c1 [Example 126] >= 7 label 0

###

Assignment: determine reported pIC50 for the given molecules.
- ASSAYED_SYSTEM: EGFR (ErbB1) L858R (Homo sapiens (Human), UniProt P00533, L858R)
- TEST_SUMMARY: Kinase assay (IC50), fluorescence peptide assay
- SETTINGS: read-out: IC50 EGFR (ErbB1) L858R; 10 pt curve, 1 μM top concentration, Km ATP
Answers are plain numbers, as −log10 of the molar value.

Required: pIC50, one value per molecule below.
1. COc1cc(Nc2ncc(Cl)c(Nc3ccccc3C(=O)C(=O)N(C)C)n2)ccc1N1CCC(N(C)C)CC1
2. C=CC(=O)Nc1ccc(OC)c(Nc2ncc(Cl)c(Nc3ccccc3C(=O)C(=O)N(C)C)n2)c1
3. C#Cc1cccc(Nc2ncnc3cc4c(cc23)OCCOCCOCCO4)c1 [Icotinib, reference compound]

6.80
6.30
8.69

###

- ASSAYED_SYSTEM: EGFR (h) (Homo sapiens (Human))
- Sequence (P00533 25-1210): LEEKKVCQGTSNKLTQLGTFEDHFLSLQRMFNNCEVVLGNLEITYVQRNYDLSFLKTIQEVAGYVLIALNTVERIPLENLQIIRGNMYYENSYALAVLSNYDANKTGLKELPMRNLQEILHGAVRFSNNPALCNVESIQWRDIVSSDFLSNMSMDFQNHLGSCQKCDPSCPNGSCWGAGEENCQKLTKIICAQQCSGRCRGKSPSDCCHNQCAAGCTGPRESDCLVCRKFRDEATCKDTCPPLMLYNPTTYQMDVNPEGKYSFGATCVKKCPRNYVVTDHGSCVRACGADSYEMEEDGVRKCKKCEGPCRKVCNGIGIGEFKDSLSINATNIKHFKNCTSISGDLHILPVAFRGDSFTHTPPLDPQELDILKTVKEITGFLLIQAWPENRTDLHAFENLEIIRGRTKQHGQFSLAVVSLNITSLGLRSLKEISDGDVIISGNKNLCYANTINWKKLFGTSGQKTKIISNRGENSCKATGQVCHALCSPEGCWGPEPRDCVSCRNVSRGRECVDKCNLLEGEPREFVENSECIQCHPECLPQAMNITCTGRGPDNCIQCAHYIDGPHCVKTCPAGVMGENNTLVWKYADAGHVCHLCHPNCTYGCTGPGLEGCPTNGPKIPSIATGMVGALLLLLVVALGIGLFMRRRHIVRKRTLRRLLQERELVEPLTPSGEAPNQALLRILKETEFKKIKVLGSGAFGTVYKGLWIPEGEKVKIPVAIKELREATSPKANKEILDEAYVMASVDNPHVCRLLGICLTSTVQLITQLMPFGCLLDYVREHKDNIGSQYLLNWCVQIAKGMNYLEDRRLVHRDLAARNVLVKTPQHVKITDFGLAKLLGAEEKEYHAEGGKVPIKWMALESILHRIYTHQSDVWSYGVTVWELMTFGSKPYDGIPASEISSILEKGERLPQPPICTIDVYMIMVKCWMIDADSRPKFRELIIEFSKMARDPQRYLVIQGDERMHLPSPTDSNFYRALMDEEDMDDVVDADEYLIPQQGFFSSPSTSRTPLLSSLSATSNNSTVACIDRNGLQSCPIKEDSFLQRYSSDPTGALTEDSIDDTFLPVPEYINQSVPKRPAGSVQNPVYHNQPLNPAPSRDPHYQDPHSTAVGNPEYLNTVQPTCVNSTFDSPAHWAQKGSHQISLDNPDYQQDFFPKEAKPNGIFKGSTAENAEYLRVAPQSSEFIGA
- TEST_SUMMARY: Kinase assay, single dose inhibition (Millipore, 33P-ATP filter binding)
- Format: biochemical
- SETTINGS: 0.1 μM test compound, 10 μM ATP; remaining activity relative to DMSO control = 100%
So I've got a bunch of compounds here, and I need their Activity (control) % EGFR (h) values.

Recorded results for 3 compounds are shown here.
{"columns": ["SMILES_STRUCTURE", "READOUT_LABEL", "RESULT"],
 "data": [
  ["CN(C)C/C=C/C(=O)Nc1cccc(Nc2ncc(Cl)c(Nc3ccccc3C(=O)C(=O)N(C)C)n2)c1", "Activity (control) % EGFR (h)", "91%"],
  ["COc1ccc(NC(=O)/C=C/CN2CCCCC2)cc1Nc1ncc(Cl)c(Nc2ccccc2C(=O)C(=O)N(C)C)n1", "Activity (control) % EGFR (h)", "102%"],
  ["COc1cc(Nc2ncc(Cl)c(Nc3ccccc3C(=O)C(=O)N(C)C)n2)ccc1N1CCN(C(C)=O)CC1", "Activity (control) % EGFR (h)", "100%"]
]}

// next entry
Find the recorded Activity (control) % EGFR (h) belonging to CN(C)C(=O)C(=O)c1ccccc1Nc1nc(Nc2ccc(F)c(NC(=O)CCN3CCOCC3)c2)ncc1Cl and report it. 115%

###

- ASSAYED_SYSTEM: EGFR (L858R) (h) (Homo sapiens (Human), UniProt P00533, L858R)
- Sequence (P00533 25-1210 L858R): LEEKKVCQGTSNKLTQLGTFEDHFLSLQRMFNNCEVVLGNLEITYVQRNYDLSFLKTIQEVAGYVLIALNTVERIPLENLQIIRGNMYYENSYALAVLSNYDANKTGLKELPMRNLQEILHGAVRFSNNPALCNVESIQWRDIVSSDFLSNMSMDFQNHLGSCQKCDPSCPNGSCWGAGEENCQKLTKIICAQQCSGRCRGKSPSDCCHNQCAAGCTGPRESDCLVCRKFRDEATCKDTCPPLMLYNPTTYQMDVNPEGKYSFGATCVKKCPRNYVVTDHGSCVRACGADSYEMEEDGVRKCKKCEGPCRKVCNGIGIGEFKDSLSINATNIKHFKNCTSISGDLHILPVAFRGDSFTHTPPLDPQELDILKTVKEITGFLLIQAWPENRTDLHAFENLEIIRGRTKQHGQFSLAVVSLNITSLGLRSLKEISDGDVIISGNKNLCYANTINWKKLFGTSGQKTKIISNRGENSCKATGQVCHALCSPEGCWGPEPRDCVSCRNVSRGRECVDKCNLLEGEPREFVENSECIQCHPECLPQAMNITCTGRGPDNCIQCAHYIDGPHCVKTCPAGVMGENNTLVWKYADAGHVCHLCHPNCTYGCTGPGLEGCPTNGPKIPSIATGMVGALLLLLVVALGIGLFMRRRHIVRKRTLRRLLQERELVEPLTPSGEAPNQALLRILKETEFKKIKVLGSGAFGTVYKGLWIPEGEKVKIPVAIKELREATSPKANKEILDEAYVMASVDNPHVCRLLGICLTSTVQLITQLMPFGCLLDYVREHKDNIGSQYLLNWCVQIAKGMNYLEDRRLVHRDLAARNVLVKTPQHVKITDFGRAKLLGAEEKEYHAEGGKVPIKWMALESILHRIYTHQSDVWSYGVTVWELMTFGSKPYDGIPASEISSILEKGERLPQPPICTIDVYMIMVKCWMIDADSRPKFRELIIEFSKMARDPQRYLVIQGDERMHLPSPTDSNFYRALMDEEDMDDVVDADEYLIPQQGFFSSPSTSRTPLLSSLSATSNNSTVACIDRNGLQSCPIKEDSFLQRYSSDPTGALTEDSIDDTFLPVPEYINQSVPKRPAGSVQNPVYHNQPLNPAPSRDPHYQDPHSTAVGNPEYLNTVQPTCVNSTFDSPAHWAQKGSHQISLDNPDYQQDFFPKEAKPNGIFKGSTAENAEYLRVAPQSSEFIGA
- TEST_SUMMARY: Kinase assay, single dose inhibition (Millipore, 33P-ATP filter binding)
- Format: biochemical
- SETTINGS: 0.1 μM test compound, 10 μM ATP; remaining activity relative to DMSO control = 100%
Give Activity (control) % EGFR (L858R) (h) for every item shown.
Answers are plain numbers, in %.

{"columns": ["COMPOUND", "UNIT_DESCRIPTOR", "Activity (control) % EGFR (L858R) (h)"],
 "data": [
  ["COc1cc(N2CCC(N(C)C)CC2)ccc1Nc1ncc(Cl)c(Nc2ccccc2C(=O)C(N)=O)n1", "%", 8],
  ["C=CC(=O)Nc1ccc(OC)c(Nc2ncc(Cl)c(Nc3ccccc3C(=O)C(=O)N(CC)CC)n2)c1", "%", 104],
  ["C=CC(=O)Nc1cccc(Nc2ncc(Cl)c(Nc3ccccc3C(=O)C(=O)N(C)C)n2)c1", "%", 103],
  ["COc1cc(Nc2ncc(Cl)c(Nc3ccccc3C(=O)C(=O)N(C)C)n2)ccc1N1CCN(C(C)=O)CC1", "%", 84],
  ["C=CC(=O)Nc1cc(Nc2ncc(Cl)c(Nc3ccccc3C(=O)C(=O)N(CC)CC)n2)ccc1OC", "%", 114]
]}

Batch lookup, Activity (control) % EGFR (L858R) (h) per entry.
1. C=CC(=O)Nc1ccc(OC)c(Nc2ncc(Cl)c(Nc3ccccc3C(=O)C(=O)N(C)C)n2)c1
2. C=CC(=O)Nc1cccc(Nc2nc(Nc3ccc(N4CCN(C(C)=O)CC4)cc3OC)ncc2C(F)(F)F)c1 [CO-1686, reference compound]

1: 85; 2: 97

###

Consider the following compounds; for each one, report its pIC50.
- ASSAYED_SYSTEM: ALK (Homo sapiens (Human))
- Sequence (Q9UM73 19-1620): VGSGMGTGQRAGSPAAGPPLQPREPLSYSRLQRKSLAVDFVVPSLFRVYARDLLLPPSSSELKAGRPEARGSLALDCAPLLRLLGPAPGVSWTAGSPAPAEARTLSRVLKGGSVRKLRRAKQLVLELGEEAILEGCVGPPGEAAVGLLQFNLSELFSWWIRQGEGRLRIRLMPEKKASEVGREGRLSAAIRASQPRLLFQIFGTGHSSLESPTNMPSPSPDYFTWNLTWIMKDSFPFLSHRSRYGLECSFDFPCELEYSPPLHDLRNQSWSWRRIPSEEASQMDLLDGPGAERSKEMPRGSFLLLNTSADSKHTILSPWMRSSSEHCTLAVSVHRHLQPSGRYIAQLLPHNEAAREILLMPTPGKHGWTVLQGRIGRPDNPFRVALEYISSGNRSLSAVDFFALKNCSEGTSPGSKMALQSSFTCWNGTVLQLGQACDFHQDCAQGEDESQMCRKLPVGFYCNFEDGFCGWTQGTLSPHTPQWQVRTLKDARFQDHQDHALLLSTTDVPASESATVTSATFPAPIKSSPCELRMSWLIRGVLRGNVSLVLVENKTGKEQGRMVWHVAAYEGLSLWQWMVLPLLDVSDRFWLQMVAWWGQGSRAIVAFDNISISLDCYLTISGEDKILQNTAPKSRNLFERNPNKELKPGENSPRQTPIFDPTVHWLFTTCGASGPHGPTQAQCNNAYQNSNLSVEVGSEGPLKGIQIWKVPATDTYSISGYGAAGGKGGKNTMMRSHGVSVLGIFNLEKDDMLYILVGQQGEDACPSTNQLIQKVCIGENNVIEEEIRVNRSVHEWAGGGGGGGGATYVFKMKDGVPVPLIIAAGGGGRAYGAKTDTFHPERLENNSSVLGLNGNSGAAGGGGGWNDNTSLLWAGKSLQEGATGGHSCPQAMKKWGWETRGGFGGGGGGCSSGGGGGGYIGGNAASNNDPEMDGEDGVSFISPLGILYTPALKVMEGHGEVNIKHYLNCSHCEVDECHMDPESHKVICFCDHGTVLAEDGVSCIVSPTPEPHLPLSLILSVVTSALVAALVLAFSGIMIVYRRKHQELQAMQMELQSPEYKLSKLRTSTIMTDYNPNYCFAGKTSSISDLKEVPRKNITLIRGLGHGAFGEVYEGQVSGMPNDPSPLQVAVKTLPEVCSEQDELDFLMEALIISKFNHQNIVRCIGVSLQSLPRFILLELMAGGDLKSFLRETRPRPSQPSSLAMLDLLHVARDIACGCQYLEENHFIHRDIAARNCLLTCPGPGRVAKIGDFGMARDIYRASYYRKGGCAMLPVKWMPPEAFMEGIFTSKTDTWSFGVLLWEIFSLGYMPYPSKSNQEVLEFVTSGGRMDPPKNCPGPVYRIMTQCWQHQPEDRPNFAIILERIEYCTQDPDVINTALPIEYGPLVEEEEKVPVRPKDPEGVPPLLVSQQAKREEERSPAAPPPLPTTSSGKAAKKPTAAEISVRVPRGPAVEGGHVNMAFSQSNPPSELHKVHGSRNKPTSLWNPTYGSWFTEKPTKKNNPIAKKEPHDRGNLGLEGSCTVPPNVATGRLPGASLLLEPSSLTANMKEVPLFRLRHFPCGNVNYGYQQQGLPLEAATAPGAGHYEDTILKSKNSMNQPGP
One number for each entry, as −log10 of the molar value.

Examples from the recorded data:
{"columns": ["SMILES_STRUCTURE", "ASSAYED_SYSTEM", "pIC50"],
 "data": [
  ["COc1cc(Nc2ncc(Cl)c(Nc3ccccc3C(=O)C(=O)N(C)C)n2)ccc1N1CCC(N(C)C)CC1", "ALK (Homo sapiens (Human))", 7.97],
  ["COc1cc(Nc2ncc(Cl)c(Nc3ccccc3C(=O)C(=O)N(C)C)n2)ccc1N1CCN(C)CC1", "ALK (Homo sapiens (Human))", 7.91]
]}

// next item, pIC50 requested
Look at this compound and give its reported pIC50. C=CC(=O)Nc1ccc(OC)c(Nc2ncc(Cl)c(Nc3ccccc3C(=O)C(=O)N(C)C)n2)c1 7.76

###

- ASSAYED_SYSTEM: EGFR (h) (Homo sapiens (Human))
- TEST_SUMMARY: Kinase assay, single dose inhibition (Millipore, 33P-ATP filter binding)
- Format: biochemical
- SETTINGS: 0.1 μM test compound, 10 μM ATP; remaining activity relative to DMSO control = 100%
READOUT_LABEL: Activity (control) % EGFR (h) (%)
Answers are plain numbers, in %.

Recorded Activity (control) % EGFR (h), per entry:
{"columns": ["SMILES_STRUCTURE", "Activity (control) % EGFR (h) [%]"],
 "data": [
  ["C=C(CN1CCCCC1)C(=O)Nc1ccc(OC)c(Nc2ncc(Cl)c(Nc3ccccc3C(=O)C(=O)N(C)C)n2)c1", 67],
  ["CCC(=O)Nc1cc(Nc2ncc(Cl)c(Nc3ccccc3C(=O)C(=O)N(C)C)n2)ccc1OCCN(C)C", 115]
]}

Next up:
Tell me reported Activity (control) % EGFR (h) for C=CC(=O)Nc1cc(Nc2ncc(Cl)c(Nc3ccccc3C(=O)C(=O)NC)n2)ccc1OC , tested with EGFR (h) (Homo sapiens (Human)). 106

###

- ASSAYED_SYSTEM: EGFR (L858R) (h) (Homo sapiens (Human), UniProt P00533, L858R)
- TEST_SUMMARY: Kinase assay, single dose inhibition (Millipore, 33P-ATP filter binding)
- Assay type: biochemical
- SETTINGS: 0.1 μM test compound, 10 μM ATP; remaining activity relative to DMSO control = 100%
For each record, write down the corresponding Activity (control) % EGFR (L858R) (h).
State the value with its unit after it.

Use the examples below as a reference point.
{"columns": ["COMPOUND", "ASSAYED_SYSTEM", "Activity (control) % EGFR (L858R) (h)"],
 "data": [
  ["C=CC(=O)Nc1cc(Nc2ncc(Cl)c(Nc3ccccc3C(=O)C(=O)NC)n2)ccc1OC [Example 64]", "EGFR (L858R) (h) (Homo sapiens (Human), UniProt P00533, L858R)", "100%"],
  ["COc1cc(Nc2ncc(Cl)c(Nc3ccccc3C(=O)C(=O)N(C)C)n2)ccc1N1CCN(C)CC1 [Example 61]", "EGFR (L858R) (h) (Homo sapiens (Human), UniProt P00533, L858R)", "70%"],
  ["C=C(CN1CCCCC1)C(=O)Nc1cccc(Nc2ncc(Cl)c(Nc3ccccc3C(=O)C(=O)N(C)C)n2)c1 [Example 113]", "EGFR (L858R) (h) (Homo sapiens (Human), UniProt P00533, L858R)", "78%"],
  ["COc1cc(Nc2ncc(Cl)c(Nc3ccccc3C(=O)C(=O)N(C)C)n2)ccc1N1CCC(N(C)C)CC1 [Example 118]", "EGFR (L858R) (h) (Homo sapiens (Human), UniProt P00533, L858R)", "29%"],
  ["C=CC(=O)Nc1ccc(OC2CCOC2)c(Nc2ncc(Cl)c(Nc3ccccc3C(=O)C(=O)N(C)C)n2)c1 (stereo not drawn) [Example 136]", "EGFR (L858R) (h) (Homo sapiens (Human), UniProt P00533, L858R)", "104%"]
]}

Hi! Can you tell me Activity (control) % EGFR (L858R) (h) for each of these compounds?
1. C=CC(=O)Nc1cc(Nc2ncc(Cl)c(Nc3ccccc3C(=O)C(=O)N(C)C)n2)ccc1OC [Example 65]
2. COc1ccc(NC(=O)/C=C/CN2CCOCC2)cc1Nc1ncc(Cl)c(Nc2ccccc2C(=O)C(=O)N(C)C)n1 [Example 79]
3. C=C(CN1CCOCC1)C(=O)Nc1cccc(Nc2ncc(Cl)c(Nc3ccccc3C(=O)C(=O)N(C)C)n2)c1 [Example 112]
4. C=C(CN1CCOCC1)C(=O)Nc1ccc(OC)c(Nc2ncc(Cl)c(Nc3ccccc3C(=O)C(=O)N(C)C)n2)c1 [Example 41]
5. C=CC(=O)Nc1cc(Nc2ncc(C)c(Nc3ccccc3C(=O)C(=O)N(C)C)n2)ccc1OC [Example 101]
6. COc1cc(N2CCN(C(C)=O)CC2)ccc1Nc1ncc(Cl)c(Nc2ccccc2C(=O)C(=O)N(C)C)n1 [Example 53]
7. C=CC(=O)Nc1cc(Nc2ncc(Cl)c(Nc3ccccc3C(=O)C(=O)N(C)C)n2)ccc1N1CCN(C)CC1 [Example 111]

102%
25%
66%
39%
94%
60%
76%

For every item below, please supply its Activity (control) % EGFR (L858R) (h).
1. CN(C)C/C=C/C(=O)Nc1cccc(Nc2ncc(Cl)c(Nc3ccccc3C(=O)C(=O)N(C)C)n2)c1 [Example 114]
2. COc1ccc(NC(=O)/C=C/CN2CCCCC2)cc1Nc1ncc(Cl)c(Nc2ccccc2C(=O)C(=O)N(C)C)n1 [Example 72]
3. CCN(CC)C(=O)C(=O)c1ccccc1Nc1nc(Nc2ccc(N3CCN(C)CC3)c(OC)c2)ncc1Cl [Example 130]

1: 52%; 2: 28%; 3: 98%
